PROTOCOL DESCRIPTION: small-molecule binders of probe aNOTCH2, primary screen, biochemical, small-molecule microarray, 635/667 nm fluorescence (AID 1121);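 note: score merges feature fluorescence read at 667 nm with its signal to noise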
TEST CONTEXT: higher = more signal
Rule: composite z-score under -0.1 gives NO, otherwise YES.

{"SAMPLE SMILES": "CCOC(=O)C[C@H]1[C@H](OC(=O)c2ccccc2-c2ccccc2)[C@@H](NC(=O)CC(C)C)c2cc(OCCCO)ccc2N1C(=O)c1ccccc1", "DISCRETE LABEL": "YES"}
{"SAMPLE SMILES": "O=C1C[C@@](C(=O)NCC(F)(F)F)(c2ccc([N+](=O)[O-])cc2)[C@@H](c2ccc(CO)cc2I)N1CC12CC3CC(CC(C3)C1)C2", "DISCRETE LABEL": "NO"}
{"SAMPLE SMILES": "CCOC(=O)C[C@H]1[C@H](OC(=O)c2cc3ccccc3oc2=O)[C@@H](NC(=O)c2ccc(-c3ccccc3)cc2)c2cc(OCCCO)ccc2N1C(=O)Cc1ccc(OC)cc1", "DISCRETE LABEL": "YES"}
{"SAMPLE SMILES": "C=CC[C@]12N=C(c3ccc(OCCCO)cc3)O[C@H]1c1ccccc1N(CCC)C2=O", "DISCRETE LABEL": "YES"}
{"SAMPLE SMILES": "CCCCC(=C=CC[C@H](O)c1cccc(OCCO)c1)C[C@H](O)c1cc(Cl)cc(Cl)c1O", "DISCRETE LABEL": "NO"}
{"SAMPLE SMILES": "CCOC(=O)C[C@H]1[C@H](OC(=O)c2cc3ccccc3oc2=O)[C@@H](NC(=O)Cc2ccc(OC)cc2)c2cc(OCCCO)ccc2N1C(=O)Cc1ccc(OC)cc1", "DISCRETE LABEL": "NO"}
{"SAMPLE SMILES": "CC(C)(C)OC(=O)N1[C@@H](C=C(Br)Br)COC1(C)C", "DISCRETE LABEL": "NO"}
{"SAMPLE SMILES": "O=C1O[C@@H](c2ccccc2)[C@@H](c2ccccc2)N2[C@@H](c3ccccc3OCCO)[C@]3(C(=O)Nc4ccc(C#CC5(O)CCCCCC5)cc43)[C@@H](C(=O)N3CCCCCCC3)[C@H]12", "DISCRETE LABEL": "YES"}

---

PROTOCOL DESCRIPTION: COS7 lysate on small-molecule microarray, probe aHis, 635 nm (AID 1123);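 note: z-score combines 667nm fluorescence intensity with signal-to-noise per printed compound spot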
TEST CONTEXT: COS7 cell lysate, fluorescence, higher = more signal

{"MOLECULE": "OCCCc1cc[n+](Cc2cc3c(cc2Br)OCO3)cc1", "composite z-score": -0.608}
{"MOLECULE": "COc1ccc([Si](C)(C)[C@H]2[C@H](CC(=O)N(CCO)Cc3ccccc3)O[C@@]3(C(=O)N(c4ccccc4)c4ccccc43)[C@@H]2C)cc1", "composite z-score": 0.66}
{"MOLECULE": "CC(CO)N1C(=O)[C@@H]2[C@H]3C(=O)OCC=C[C@H]3OC23C=CCN(c2ccc4ccccc4c2)C(=O)[C@@H]13 (some centres not stated)", "composite z-score": -0.312}
{"MOLECULE": "C=C(COC)C(=O)CC[C@H](OC(C)=O)c1ccc(CO)o1", "composite z-score": -0.273}
{"MOLECULE": "COCCOC(=O)N1C(=O)[C@@]2(c3cc(C#CC4(O)CCCCCC4)ccc31)[C@H](C(N)=O)[C@H]1C(=O)O[C@H](c3ccccc3)[C@H](c3ccccc3)N1[C@@H]2c1ccc(OCCO)cc1", "composite z-score": 2.58}
{"MOLECULE": "COc1ccc(C(O)C2C=CC3C(=O)N(C)C(=O)C3N2Nc2ccccc2)cc1 (configuration not stated)", "composite z-score": 2.87}
{"MOLECULE": "COCCOC(=O)N1C(=O)[C@@]2(c3cc(C#CCC(C(=O)OC)C(=O)OC)ccc31)[C@H](C(=O)N1CCc3cc(OC)c(OC)cc3C1)[C@H]1C(=O)O[C@H](c3ccccc3)[C@H](c3ccccc3)N1[C@@H]2c1ccccc1OCCO", "composite z-score": 0.977}
{"MOLECULE": "COc1ccc([Si](C)(C)[C@H]2[C@H](CC(=O)N3CCC[C@H]3CO)O[C@@]3(C(=O)N(Cc4cccc(N5CCCCC5=O)c4)c4ccccc43)[C@@H]2C)cc1", "composite z-score": 1.83}
{"MOLECULE": "O=C/C=C/c1ccc(-c2ccccc2)cc1", "composite z-score": -0.327}
{"MOLECULE": "CCCC[C@@H](O)C1=C(C)Cn2c(=O)n(-c3ccccc3)c(=O)n2[C@H]1CO", "composite z-score": 0.332}
{"MOLECULE": "CCOC(=O)C[C@H]1[C@H](OC(=O)c2cc3ccccc3oc2=O)[C@@H](NC(=O)Cc2ccc(OC)cc2)c2cc(OCCCO)ccc2N1C(=O)Cc1ccc(OC)cc1", "composite z-score": 0.638}
{"MOLECULE": "CC1C2C(CCCO)=CC(C3C(=O)N(C)C(=O)C23)N1Cc1cccc(OC(F)(F)F)c1 (configuration not stated)", "composite z-score": 2.43}
{"MOLECULE": "COC(=O)c1ccc(OC)c(/C=C\\CC(OC(=O)c2ccncc2)c2ccccc2)c1 (configuration not stated)", "composite z-score": 0.0584}
{"MOLECULE": "COC(=O)c1c2oc(c1C(=O)OC)C(=O)N[C@H](Cc1ccccc1)Cn1cc(nn1)C1(CCCCC1)NC(=O)N[C@H](CO)CC2", "composite z-score": 0.856}
{"MOLECULE": "CCCCC(=C=CC[C@H](O)c1cccc(OCCO)c1)C[C@H](O)c1cc(Cl)cc(Cl)c1O", "composite z-score": 0.686}
{"MOLECULE": "CN1C(=O)C2C=CC(C(O)c3cccs3)N(N(c3ccccc3)c3ccccc3)C2C1=O (configuration not stated)", "composite z-score": 1.69}
{"MOLECULE": "CCOC(=O)C[C@H]1[C@H](OC(=O)c2ccccc2-c2ccccc2)[C@@H](NC(=O)CC(C)C)c2cc(OCCCO)ccc2N1C(=O)c1ccccc1", "composite z-score": 0.429}
{"MOLECULE": "CCOC(=O)C[C@H]1[C@H](OC(=O)Cc2ccc3c(c2)OCO3)[C@@H](NC(=O)CC(C)C)c2cc(OCCCO)ccc2N1C(=O)c1ccc2ccccc2n1", "composite z-score": 0.26}
{"MOLECULE": "COCCCNC(=O)[C@@]1(Cc2ccccc2I)c2ccccc2C(=O)N(C2CCCCC2)[C@H]1c1ccc(CO)cc1", "composite z-score": 2.36}
{"MOLECULE": "C=CC[C@H](O)c1ccc(O)c2ccccc12", "composite z-score": 1.63}
{"MOLECULE": "COC(=O)[C@@]1(Cc2ccc(F)cc2)[C@@H]2C(=CC(=O)[C@H]2CC(=O)C(=O)N2CCCC2)CN1C(=O)c1ccccc1", "composite z-score": 3.14}
{"MOLECULE": "O=C(N1CCOCC1)[C@]1(CCS(=O)(=O)c2ccccc2)N=C(c2ccc(OCCCO)cc2)O[C@@H]1c1ccccc1", "composite z-score": 2.86}

---

composite z-score for assorted compounds
SYSTEM TESTED: Follistatin-related protein 3 (Homo sapiens)
PROTOCOL DESCRIPTION: FSTL3 binders on small-molecule microarrays, primary screen, biochemical, small-molecule microarray, 635 nm fluorescence (AID 1105);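 note: score merges emission near 667 nm and signal to noise per printed spot across three slides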
TEST CONTEXT: FSTL3 binding, higher = more signal
READOUT TYPE: composite z-score

{"COMPOUND": "COc1ccc(CCNC(=O)[C@@]2(C)c3ccccc3C(=O)N(Cc3ccc(OC(F)(F)F)cc3)[C@H]2c2ccc(CO)cc2)cc1", "READOUT TYPE": "composite z-score", "TEST RESULT": 0.286}
{"COMPOUND": "CC(C)N1CC=CC23O[C@@H]4/C=C\\CCCOC(=O)C4[C@H]2C(=O)N(C(C)CO)[C@@H]3C1=O (some centres not stated)", "READOUT TYPE": "composite z-score", "TEST RESULT": -0.849}
{"COMPOUND": "CCCCCN1CC=CC23O[C@@H]4/C=C\\CCCOC(=O)C4[C@H]2C(=O)N(CCCCCO)[C@@H]3C1=O (some centres not stated)", "READOUT TYPE": "composite z-score", "TEST RESULT": -0.521}
{"COMPOUND": "CCCCC=C[C@@H](NC(=O)C(C)(C)C)c1ccccc1", "READOUT TYPE": "composite z-score", "TEST RESULT": 0.508}
{"COMPOUND": "O=C1O[C@@H](c2ccccc2)[C@@H](c2ccccc2)N2[C@@H](c3ccccc3OCCO)[C@]3(C(=O)Nc4ccc(C#CC5(O)CCCCCC5)cc43)[C@@H](C(=O)N3CCCCCCC3)[C@H]12", "READOUT TYPE": "composite z-score", "TEST RESULT": 1.77}
{"COMPOUND": "COC(=O)C[C@H]1O[C@]2(C(=O)N(C)c3ccccc32)[C@@H](C)[C@@H]1[Si](C)(C)c1ccccc1", "READOUT TYPE": "composite z-score", "TEST RESULT": 0.837}
{"COMPOUND": "COCCCNC(=O)[C@@]1(Cc2ccccc2I)c2ccccc2C(=O)N(C2CCCCC2)[C@H]1c1ccc(CO)cc1", "READOUT TYPE": "composite z-score", "TEST RESULT": 0.0553}

The measurements presented in this section are drawn from PubChem BioAssay.
